# assayDetails: Pharmacokinetics of gaboxadol in rats after IV dosing, with or without 5-HTP pre-incubation
# Type: in vivo, Sprague-Dawley rats
# assaySetup: male, Sprague-Dawley, rat, in vivo, iv, 2.5 mg/kg, Cmax ± S.E.M.
valueKind: Cmax (ng/mL)
Answer in ng/mL, number only, no unit symbol.

Reported Cmax, compound Oc1noc2c1CCNC2 [gaboxadol] : ____
2850

* * *

# assayDetails: Pharmacokinetics of gaboxadol in rats after IV dosing, with or without 5-HTP pre-incubation
# Format: in vivo, Sprague-Dawley rats
# assaySetup: male, Sprague-Dawley, rat, in vivo, iv, 2.5 mg/kg, T1/2
valueKind: half-life (min)
Answer in min, number only, no unit symbol.

Reported half-life, compound Oc1noc2c1CCNC2 [gaboxadol] : ____
26

* * *

# assayDetails: Pharmacokinetics of gaboxadol in beagle dogs, IV or PO, with or without co-administered tryptophan
# Type: in vivo
# assaySetup: male, beagle, dog, in vivo, po, 2.5 mg/kg, Cmax
valueKind: Cmax (ng/mL)
Answer in ng/mL, number only, no unit symbol.

Reported Cmax, molecule "Oc1noc2c1CCNC2" : ____
2500

* * *

# assayDetails: Pharmacokinetics of gaboxadol in rats after PO dosing, with or without 5-HTP pre-incubation
# Type: in vivo, Sprague-Dawley rats
# assaySetup: male, Sprague-Dawley, rat, in vivo, po, 0.5 mg/kg, Cmax ± S.E.M.
valueKind: Cmax (µg/mL)
Answer in µg/mL, number only, no unit symbol.

Reported Cmax, molecule "Oc1noc2c1CCNC2" : ____
0.273

* * *

# assayDetails: Pharmacokinetics of gaboxadol in beagle dogs, IV or PO, with or without co-administered tryptophan
# Format: in vivo
# assaySetup: male, beagle, dog, in vivo, po, 150 mg/kg, Cmax
valueKind: Cmax
Include the unit after the number when you answer.

Reported Cmax, compound Oc1noc2c1CCNC2 [gaboxadol] : ____
1420 ng/mL

* * *

# assayDetails: Pharmacokinetics of gaboxadol in beagle dogs, IV or PO, with or without co-administered tryptophan
# Assay type: in vivo
# assaySetup: male, beagle, dog, in vivo, iv, 2.5 mg/kg, Cmax
valueKind: Cmax (ng/mL)
Answer in ng/mL, number only, no unit symbol.

Reported Cmax, compound "Oc1noc2c1CCNC2" : ____
5490

* * *

# assayDetails: Pharmacokinetics of gaboxadol in beagle dogs, IV or PO, with or without co-administered tryptophan
# Type: in vivo
# assaySetup: male, beagle, dog, in vivo, po, 10 mg/kg, AUC
valueKind: AUC (ng·h/mL)
Answer in ng·h/mL, number only, no unit symbol.

Reported AUC, molecule Oc1noc2c1CCNC2 [gaboxadol] : ____
4030

* * *

# assayDetails: Pharmacokinetics of gaboxadol in beagle dogs, IV or PO, with or without co-administered tryptophan
# Assay type: in vivo
# assaySetup: male, beagle, dog, in vivo, po, 150 mg/kg, AUC
valueKind: AUC (ng·h/mL)
Answer in ng·h/mL, number only, no unit symbol.

Reported AUC, molecule "Oc1noc2c1CCNC2" : ____
4400

* * *

# assayDetails: Pharmacokinetics of gaboxadol in beagle dogs, IV or PO, with or without co-administered tryptophan
# Type: in vivo
# assaySetup: male, beagle, dog, in vivo, po, 150 mg/kg, Fa (bioavailability)
valueKind: bioavailability

Reported bioavailability, molecule Oc1noc2c1CCNC2 [gaboxadol] : ____
79.7%

* * *

# assayDetails: Pharmacokinetics of gaboxadol in beagle dogs, IV or PO, with or without co-administered tryptophan
# Type: in vivo
# assaySetup: male, beagle, dog, in vivo, po, 10 mg/kg, Fa (bioavailability)
valueKind: bioavailability (%)
Answer in %, number only, no unit symbol.

Reported bioavailability, molecule "Oc1noc2c1CCNC2" : ____
75

* * *

# assayDetails: Pharmacokinetics of gaboxadol in beagle dogs, IV or PO, with or without co-administered tryptophan
# Type: in vivo
# assaySetup: male, beagle, dog, in vivo, po, 2.5 mg/kg, Fa (bioavailability)
valueKind: bioavailability

Reported bioavailability, compound Oc1noc2c1CCNC2 [gaboxadol] : ____
85.3%

* * *

# assayDetails: Pharmacokinetics of gaboxadol in beagle dogs, IV or PO, with or without co-administered tryptophan
# Type: in vivo
# assaySetup: male, beagle, dog, in vivo, po, 50 mg/kg, AUC
valueKind: AUC
Include the unit after the number when you answer.

Reported AUC, compound Oc1noc2c1CCNC2 [gaboxadol] : ____
4290 ng·h/mL

* * *

# assayDetails: Pharmacokinetics of gaboxadol in beagle dogs, IV or PO, with or without co-administered tryptophan
# Assay type: in vivo
# assaySetup: male, beagle, dog, in vivo, po, 10 mg/kg, Tmax
valueKind: Tmax (min)
Answer in min, number only, no unit symbol.

Reported Tmax, compound "Oc1noc2c1CCNC2" : ____
32.4

* * *

# assayDetails: Pharmacokinetics of gaboxadol in beagle dogs, IV or PO, with or without co-administered tryptophan
# Assay type: in vivo
# assaySetup: male, beagle, dog, in vivo, po, 50 mg/kg, Tmax
valueKind: Tmax (min)
Answer in min, number only, no unit symbol.

Reported Tmax, molecule Oc1noc2c1CCNC2 [gaboxadol] : ____
27.6
